Data provenance: patent US7407939

- MEASURED TARGET: protein kinase B, P31749
- Sequence (P31749 whole entry): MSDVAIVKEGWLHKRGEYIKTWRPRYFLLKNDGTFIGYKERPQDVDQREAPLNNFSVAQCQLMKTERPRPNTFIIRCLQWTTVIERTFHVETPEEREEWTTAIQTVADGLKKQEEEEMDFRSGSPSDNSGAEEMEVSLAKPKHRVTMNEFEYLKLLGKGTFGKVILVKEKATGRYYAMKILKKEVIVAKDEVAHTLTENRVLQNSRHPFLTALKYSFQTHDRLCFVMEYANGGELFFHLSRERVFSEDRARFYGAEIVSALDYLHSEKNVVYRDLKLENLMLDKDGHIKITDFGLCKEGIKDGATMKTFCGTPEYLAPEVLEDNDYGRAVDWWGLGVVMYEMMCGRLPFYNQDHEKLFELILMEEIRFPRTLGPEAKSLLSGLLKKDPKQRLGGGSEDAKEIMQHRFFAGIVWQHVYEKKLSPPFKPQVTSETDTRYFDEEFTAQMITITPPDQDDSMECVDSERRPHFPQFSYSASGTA
- EXPERIMENT: cell-based or functional assay
Where no end group is shown, it is not given here. [ ]: non-standard residue; d: D form. The star is where a group is joined. O‑CO‑N‑SO2‑IQ = carbamate-linked N-sulfonyl 5-aminoethylsulfonamide isoquinoline (O-CO-N-SO2-IQ); SO2‑IQ = 5-aminoethylsulfoneamide isoquinoline, O=S(=O)(NCCN*)c1cccc2cnccc12; hLeu = CC(C)CC[C@H](N)C(=O)O; Orn = NCCC[C@H](N)C(=O)O; Abu = CC[C@H](N)C(=O)O; Dap = NC[C@H](N)C(=O)O
# maps each entry to its Activity PKB
Please respond with the number in µM and leave the unit unwritten.

Worked cases, answers included:
RPRTS[Abu]F-{O‑CO‑N‑SO2‑IQ} (not fully specified; printed as Arg-Pro-Arg-Thr-Ser-Abu-Phe-(O-CO-N-SO2-IQ)) [PTR 6013] | 3
RPRTS[Dap][hLeu] [TY 60002-96] | 5
RPRTSE(SO2‑IQ)F [PTR 6014] | 25
RPRMSSF [AR 60003-50] | 2.5

### Prompt What does the record list as Activity PKB for RPR[Orn]SSF [AR 60003-52] ?
### Response 2.5

### Prompt Subsequent entry: RPRTE(SO2‑IQ)SF [PTR 6016]
### Response 0.9

### Prompt Subsequent entry: RPRRSSF [AR 60003-53]
### Response 3

### Prompt Subsequent entry: RPRTSA[hLeu] [TY 60002-50]
### Response 5

### Prompt Subsequent entry: RPRTS[Abu][hLeu] [TY 60002-73]
### Response 5

### Prompt Subsequent entry: RPRVS[Abu]F [TY 60002-61]
### Response 5
